Tested on: Enterococcus faecalis
Test: Antibacterial activity against vancomycin-susceptible Enterococcus faecalis clinical isolate by broth microdilution method
Format: functional
observable: MIC50

>>> value_measured("CCCCCCCCCCNCCN[C@@]1(C)C[C@H](O[C@H]2[C@H](Oc3c4cc5cc3Oc3ccc(cc3Cl)[C@@H](O)[C@@H](NC(=O)[C@@H](CC(C)C)NC)C(=O)N[C@@H](CC(N)=O)C(=O)N[C@H]5C(=O)N[C@H]3C(=O)N[C@H](C(=O)N[C@H](C(=O)O)c5cc(O)c(CNCP(=O)(O)O)c(O)c5-c5cc3ccc5O)[C@H](O)c3ccc(c(Cl)c3)O4)O[C@H](CO)[C@@H](O)[C@@H]2O)O[C@@H](C)[C@H]1O")
"0.5 µg/mL"
>>> value_measured("CN[C@H](CC(C)C)C(=O)N[C@H]1C(=O)N[C@@H](CC(N)=O)C(=O)N[C@H]2C(=O)N[C@H]3C(=O)N[C@H](C(=O)N[C@H](C(=O)O)c4cc(O)cc(O)c4-c4cc3ccc4O)[C@H](O)c3ccc(c(Cl)c3)Oc3cc2cc(c3O[C@@H]2O[C@H](CO)[C@@H](O)[C@H](O)[C@H]2O[C@H]2C[C@](C)(N)[C@H](O)[C@H](C)O2)Oc2ccc(cc2Cl)[C@H]1O")
"1 µg/mL"
>>> value_measured("CCCCCCCCCC(=O)N[C@@H](Cc1c[nH]c2ccccc12)C(=O)N[C@H](CC(N)=O)C(=O)N[C@@H](CC(=O)O)C(=O)N[C@@H]1C(=O)NCC(=O)N[C@@H](CCCN)C(=O)N[C@@H](CC(=O)O)C(=O)N[C@H](C)C(=O)N[C@@H](CC(=O)O)C(=O)NCC(=O)N[C@H](CO)C(=O)N[C@@H]([C@H](C)CC(=O)O)C(=O)N[C@@H](CC(=O)c2ccccc2N)C(=O)O[C@@H]1C")
"1 µg/mL"
>>> value_measured("CC1(C)S[C@@H]2[C@H](NC(=O)[C@H](N)c3ccccc3)C(=O)N2[C@H]1C(=O)O")
"1 µg/mL"

Attention now shifts to the item below.
Which MIC50 is reported for this compound? `CC(=O)NC[C@H]1CN(c2ccc(N3CCOCC3)c(F)c2)C(=O)O1`
1 µg/mL

###

Record form. Attribute: MIC50. Fill in for each entry.
Tested on: Staphylococcus hominis
Test: Antibacterial activity against methicillin-resistant coagulase-negative Staphylococcus hominis clinical isolate by broth microdilution method
Format: functional
One number for each entry, in µg/mL.

>>> value_measured("CCCCCCCCCCNCCN[C@@]1(C)C[C@H](O[C@H]2[C@H](Oc3c4cc5cc3Oc3ccc(cc3Cl)[C@@H](O)[C@@H](NC(=O)[C@@H](CC(C)C)NC)C(=O)N[C@@H](CC(N)=O)C(=O)N[C@H]5C(=O)N[C@H]3C(=O)N[C@H](C(=O)N[C@H](C(=O)O)c5cc(O)c(CNCP(=O)(O)O)c(O)c5-c5cc3ccc5O)[C@H](O)c3ccc(c(Cl)c3)O4)O[C@H](CO)[C@@H](O)[C@@H]2O)O[C@@H](C)[C@H]1O")
0.25
>>> value_measured("CCCCCCCCCC(=O)N[C@@H](Cc1c[nH]c2ccccc12)C(=O)N[C@H](CC(N)=O)C(=O)N[C@@H](CC(=O)O)C(=O)N[C@@H]1C(=O)NCC(=O)N[C@@H](CCCN)C(=O)N[C@@H](CC(=O)O)C(=O)N[C@H](C)C(=O)N[C@@H](CC(=O)O)C(=O)NCC(=O)N[C@H](CO)C(=O)N[C@@H]([C@H](C)CC(=O)O)C(=O)N[C@@H](CC(=O)c2ccccc2N)C(=O)O[C@@H]1C")
0.5
>>> value_measured("CN[C@H](CC(C)C)C(=O)N[C@H]1C(=O)N[C@@H](CC(N)=O)C(=O)N[C@H]2C(=O)N[C@H]3C(=O)N[C@H](C(=O)N[C@H](C(=O)O)c4cc(O)cc(O)c4-c4cc3ccc4O)[C@H](O)c3ccc(c(Cl)c3)Oc3cc2cc(c3O[C@@H]2O[C@H](CO)[C@@H](O)[C@H](O)[C@H]2O[C@H]2C[C@](C)(N)[C@H](O)[C@H](C)O2)Oc2ccc(cc2Cl)[C@H]1O")
2

With those in mind, consider the next compound.
Using the record for `CC(=O)NC[C@H]1CN(c2ccc(N3CCOCC3)c(F)c2)C(=O)O1` , report its MIC50.
1
